- Tested on: prostate carcinoma (PC-3) cells
- Assay Overview: SRB cytotoxicity assay, PC-3
- Format: cell-based, human
- Particulars: SRB assay, 72 h, mean ± SD of three experiments
- Protocol: In the present work, sulforhodamine B (SRB) colorimetric assay was done to evaluate the cytotoxic activity of the synthesized 3-cyano pyridines 4a–4e, 5a–5e, and 6a–6e on three human cancer cell lines: prostate carcinoma (PC-3), breast cancer (MDA-MB-231) and hepatocellular carcinoma (HepG2) cell lines. […] Cell viability was estimated using the SRB assay. […] The absorbance was measured at 540 nm using BMG LABTECH®-FLUO star Omega microplate reader (Ortenberg, Germany).
Quantity: pIC50
Numbers only, as −log10 of the molar value.

Q: Which pIC50 value is on record for O=c1[nH]cc(F)c(=O)[nH]1 [Compound 5-FU, reference compound] ?
Ans: 5.05

---

Hi there, I'd appreciate the recorded pIC50 for every entry that follows.
- Test system: normal cell line WI-38
- Assay Overview: SRB cytotoxicity assay, normal cell line WI-38
- Assay type: cell-based
- Particulars: Homo sapiens, WI-38, mean ± SD of three experiments
Numbers only, as −log10 of the molar value.

N#Cc1c(-c2ccc(Cl)cc2)cc(-c2ccc(OCc3ccc(F)cc3)cc2)nc1N = 3.86
N#Cc1c(-c2ccc(Br)cc2)cc(-c2ccc(OCc3ccc(F)cc3)cc2)[nH]c1=S = 3.84
COc1ccc(-c2cc(-c3ccc(OCc4ccc(F)cc4)cc3)[nH]c(=S)c2C#N)cc1 = 3.98
COc1ccc(-c2cc(-c3ccc(OCc4ccc(F)cc4)cc3)nc(N)c2C#N)cc1 = 4.02
N#Cc1c(-c2ccc(F)cc2)cc(-c2ccc(OCc3ccc(F)cc3)cc2)[nH]c1=O = 3.88
N#Cc1c(-c2ccccc2)cc(-c2ccc(OCc3ccc(F)cc3)cc2)[nH]c1=O = 3.76

# evaluate next
Q: Which pIC50 value is on record for N#Cc1c(-c2ccc(Cl)cc2)cc(-c2ccc(OCc3ccc(F)cc3)cc2)[nH]c1=O ?
Ans: 4.04

Just for reference, paper PMC7660103 is where these values come from.
